Each recorded value in this set is attributed to patent EP0973746B1.

Can you tell me IC50 for the items I'm about to list?
Biological target: Kinase insert Domain containing Receptor (KDR: the catalytic domain of the VEGF receptor) (Homo sapiens)
Construct: KDR: the catalytic domain of the VEGF receptor
Sequence (P35968 834-1162 limits assumed): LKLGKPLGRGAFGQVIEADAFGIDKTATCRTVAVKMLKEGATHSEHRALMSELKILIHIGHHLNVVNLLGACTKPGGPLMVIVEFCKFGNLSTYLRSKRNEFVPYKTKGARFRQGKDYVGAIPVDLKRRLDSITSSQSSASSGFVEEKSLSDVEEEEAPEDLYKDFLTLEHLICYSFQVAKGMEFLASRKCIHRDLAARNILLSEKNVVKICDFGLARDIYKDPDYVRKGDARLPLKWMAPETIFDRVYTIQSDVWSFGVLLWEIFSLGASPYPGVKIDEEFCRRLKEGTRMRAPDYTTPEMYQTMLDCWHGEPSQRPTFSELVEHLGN
Experiment: Inhibition of Kinase insert Domain containing Receptor (KDR);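 further: KDR phosphorylating a Glu:Tyr 4:1 copolymer with P32- or P33-labelled ATP, Mg++ and vanadate, read as acid-insoluble radiolabel, compared with compound-free reaction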
Format: biochemical
Conditions: pH 7.2; radioactive format; read-out: KDR IC50 (converted)

Q) Any idea what its IC50 is? The compound is `COc1cc2ncc(C#N)c(Nc3ccc(O)c(Cl)c3)c2cc1OC`
A) > 28.1 µM

Q) Given `COc1cccc2c(Nc3ccc(Br)c(O)c3)c(C#N)cnc12` , state its recorded IC50.
A) > 81 µM

Q) Given the compound `C=CC(=O)Nc1cc2c(Nc3cccc(Br)c3)c(C#N)cnc2cc1OC` , what is its reported IC50?
A) > 70.9 µM

Q) Which IC50 is listed for `COc1cccc2c(Nc3cccc(N(C)C)c3)c(C#N)cnc12` ?
A) > 94.2 µM

Q) Requested read-out: IC50. Entry: `COc1ccc(OC)c2c(Nc3cccc(Br)c3)c(C#N)cnc12`
A) > 78.1 µM

Q) Reported IC50, compound `COc1cc2c(Nc3cc(O)c(Cl)cc3F)c(C#N)cnc2c(OC)c1OC` : ____
A) > 74.3 µM

Q) Entry under review: `COc1cccc2c(Nc3c(F)cc(F)cc3F)c(C#N)cnc12` . Reported IC50?
A) > 91.1 µM

Q) Recorded IC50 of `COc1cc2ncc(C#N)c(Oc3cccc(Br)c3)c2cc1OC` , please.
A) > 77.9 µM

Q) Form field: reported IC50 of `C=CC(=O)Nc1ccc2ncc(C#N)c(Nc3ccc(F)c(F)c3)c2c1`
A) > 85.6 µM

###

Target: recombinant human MEK 1 (MAPKK) and recombinant human ERK2 (MAPK)
Experiment: Mitogen Activated Protein Kinase (MAPK) assay, two component coupled MEK 1 / ERK2;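 further: MEK 1-activated ERK2 phosphorylates MBP or Myc peptide with 33P-ATP, filter capture and scintillation counting, inhibitor preincubated with ERK2 30 min at 0 °C, inhibition relative to uninhibited control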
Conditions: separate entries for the same compound = evaluated more than one time
pIC50: −log10 of the molar value.
Please provide measured pIC50 for the entries that follow.

Q) I have this molecule here, C=CC(=O)Nc1ccc2ncc(C#N)c(Nc3ccc(Br)c(Br)c3)c2c1 [Example 380] , and I need its recorded pIC50.
A) < 4.00

Q) # query: pIC50 of entry COc1cc2ncc(C#N)c(Nc3cccc(CO)c3C)c2cc1OC [Example 333]
A) 5.00

Q) Given COc1cc([N+](=O)[O-])cc2c(Nc3ccc(Cl)cc3F)c(C#N)cnc12 [Example 342] , state its recorded pIC50.
A) < 4.00

Q) Fill blank: measured pIC50 of the molecule COCC#CC(=O)Nc1ccc2ncc(C#N)c(Nc3cccc(Br)c3)c2c1 [Example 330] is ____.
A) < 4.00

###

Would you mind telling me the reported IC50 of each entry?
Give the number; µM is assumed, so skip it.

Q) Give recorded IC50 with Epithelial Cell Kinase (ECK) (Homo sapiens) for the following compound: CC(C)N(CC#CC(=O)Nc1ccc2ncc(C#N)c(Nc3cccc(Br)c3)c2c1)C(C)C [Example 192]
Sequence (P29317 24-976, species assumed): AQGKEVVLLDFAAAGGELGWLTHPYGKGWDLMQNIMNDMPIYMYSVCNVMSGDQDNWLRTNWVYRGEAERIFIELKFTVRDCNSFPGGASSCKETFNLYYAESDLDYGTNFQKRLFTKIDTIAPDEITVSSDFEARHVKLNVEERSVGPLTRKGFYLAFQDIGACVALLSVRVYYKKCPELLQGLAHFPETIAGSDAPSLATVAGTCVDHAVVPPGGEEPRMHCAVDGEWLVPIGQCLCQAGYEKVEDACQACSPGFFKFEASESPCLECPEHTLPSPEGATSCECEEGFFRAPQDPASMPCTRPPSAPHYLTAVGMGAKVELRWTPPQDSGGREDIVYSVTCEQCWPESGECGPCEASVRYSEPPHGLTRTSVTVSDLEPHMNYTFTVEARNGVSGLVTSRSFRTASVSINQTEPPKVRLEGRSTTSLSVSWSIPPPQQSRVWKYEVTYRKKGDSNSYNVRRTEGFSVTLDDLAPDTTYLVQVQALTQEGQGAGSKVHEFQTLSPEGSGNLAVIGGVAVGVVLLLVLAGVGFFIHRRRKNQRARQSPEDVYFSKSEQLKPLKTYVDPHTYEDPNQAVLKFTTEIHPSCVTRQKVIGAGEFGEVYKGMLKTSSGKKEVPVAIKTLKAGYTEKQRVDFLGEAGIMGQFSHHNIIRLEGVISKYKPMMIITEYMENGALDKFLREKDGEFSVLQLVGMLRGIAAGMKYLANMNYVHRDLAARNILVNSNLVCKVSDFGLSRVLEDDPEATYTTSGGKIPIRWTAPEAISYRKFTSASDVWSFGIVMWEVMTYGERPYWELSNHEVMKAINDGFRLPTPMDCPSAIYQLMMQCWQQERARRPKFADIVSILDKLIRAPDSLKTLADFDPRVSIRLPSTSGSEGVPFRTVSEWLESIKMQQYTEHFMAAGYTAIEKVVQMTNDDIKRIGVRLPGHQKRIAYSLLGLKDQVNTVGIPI
A) 39.6

Q) Form entry - test system: Epithelial Cell Kinase (ECK) (Homo sapiens); read-out: IC50; compound: N#Cc1cnc2cc(O)c(O)cc2c1Nc1cccc(Br)c1 [Example 39]
A) 28.1

Q) Lookup: IC50 / Epithelial Cell Kinase (ECK) (Homo sapiens) / CN(C)CC#CC(=O)Nc1ccc2ncc(C#N)c(Nc3ccc(F)c(Cl)c3)c2c1 [Example 193]
A) 47.4

Q) Item: COc1ccc2ncc(C#N)c(Nc3ccc(C)c(O)c3)c2c1 [Example 284] Test system: Epithelial Cell Kinase (ECK) (Homo sapiens) Read-out: IC50 Value: ?
A) 32.8

Q) // map CCOc1cc2ncc(C#N)c(Nc3cccc(Br)c3)c2cc1NC(=O)C=CCN(CC)CC [Example 217] to recorded IC50 (system: Epithelial Cell Kinase (ECK) (Homo sapiens))
A) 0.115

Q) Lab request: please report IC50 under test system Epithelial Cell Kinase (ECK) (Homo sapiens) for CCOc1cc2ncc(C#N)c(Nc3cccc(Br)c3)c2cc1OC [Example 176]
A) 0.01
